Molecular target: Aryl hydrocarbon receptor (Mus musculus, UniProt P30561)
Sequence (P30561 whole entry): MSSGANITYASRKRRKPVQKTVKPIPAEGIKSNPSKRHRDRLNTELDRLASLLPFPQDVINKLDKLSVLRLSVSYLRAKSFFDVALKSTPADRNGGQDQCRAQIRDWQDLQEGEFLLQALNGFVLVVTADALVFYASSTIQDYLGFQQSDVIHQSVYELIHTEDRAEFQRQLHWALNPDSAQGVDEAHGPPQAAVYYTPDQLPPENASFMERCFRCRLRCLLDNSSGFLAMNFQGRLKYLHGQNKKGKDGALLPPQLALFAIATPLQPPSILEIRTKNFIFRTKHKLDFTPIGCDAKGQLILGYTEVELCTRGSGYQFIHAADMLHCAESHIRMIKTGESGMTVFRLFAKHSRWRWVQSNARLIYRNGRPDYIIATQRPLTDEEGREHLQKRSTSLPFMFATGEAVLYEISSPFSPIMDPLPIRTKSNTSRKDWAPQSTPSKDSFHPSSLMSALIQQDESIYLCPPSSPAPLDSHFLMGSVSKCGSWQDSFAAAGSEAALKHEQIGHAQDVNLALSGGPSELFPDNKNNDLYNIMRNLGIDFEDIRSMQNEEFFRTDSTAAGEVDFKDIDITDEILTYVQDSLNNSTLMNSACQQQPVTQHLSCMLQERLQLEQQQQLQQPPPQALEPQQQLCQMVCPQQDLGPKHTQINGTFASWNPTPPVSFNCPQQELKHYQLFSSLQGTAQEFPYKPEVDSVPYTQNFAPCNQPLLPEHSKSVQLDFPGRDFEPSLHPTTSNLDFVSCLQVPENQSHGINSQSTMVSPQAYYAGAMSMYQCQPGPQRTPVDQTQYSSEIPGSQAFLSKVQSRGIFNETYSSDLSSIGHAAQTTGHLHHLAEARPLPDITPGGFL
Assay: Antagonist activity at AhR receptor in TCDD-stimulated mouse CD34-positive cell assessed as decrease in CYP1B1 mRNA expression
reported endpoint: IC50 (nM)

• CC(C)n1cnc2c(NCCc3ccc(O)cc3)nc(-c3csc4ccccc34)nc21 = 127
